maximum absorption wavelength (λmax) by entry:
# Assay Name: Absorption spectrum in ethyl acetate solution (spectrophotometer UV-2400PC)
# Format: physicochemical

Compound	maximum absorption wavelength (λmax) / nm
CC1CC(C(C)(C)C)C(OC(=O)c2c(-c3ccccc3)c3[n](c2NC(=O)c2cccc(C(F)(F)F)c2)[Zn-]([OH])[N+]2=C(NC(=O)C(C)SCCCS(=O)(=O)[O-])C(C#N)=C(c4ccccc4)C2=C3)C(C(C)(C)C)C1.[Na+] (stereo not shown)	563
CC1CC(C(C)(C)C)C(OC(=O)C2=C(c3ccccc3)C3=Cc4c(-c5ccccc5)c(C(=O)OC5C(C(C)(C)C)CC(C)CC5C(C)(C)C)c(NC(=O)c5ccc(OC(F)(F)F)cc5)[n]4[Zn-]([OH])[N+]3=C2NC(=O)c2ccc(OC(F)(F)F)cc2)C(C(C)(C)C)C1 (stereo not shown)	561
Cc1c(C(=O)OC2C(C(C)(C)C)CC(C)CC2C(C)(C)C)c(NC(=O)c2ccc(C(F)(F)F)cc2)[n]2c1C=C1C(c3ccccc3)=C(C#N)C(NC(=O)C(C)Sc3cc(C(=O)O)cc(C(=O)O)c3)=[N+]1[Zn-]2[OH] (stereo not shown)	558
CC1CC(C(C)(C)C)C(OC(=O)c2c(-c3ccccc3)c3[n](c2NC(=O)c2c(F)c(F)c(F)c(F)c2F)[Zn-]([OH])[N+]2=C(NC(=O)C(C)Sc4cc(C(=O)O)cc(C(=O)O)c4)C(C#N)=C(c4ccccc4)C2=C3)C(C(C)(C)C)C1 (stereo not shown)	564

---

# Assay Name: Absorption spectrum in ethyl acetate solution (spectrophotometer UV-2400PC)
# Format: physicochemical
# Method: In consideration of film thickness, the molar absorption coefficient of the specific metal complex compounds-1, -2, -3 and -4 of the invention is preferably as high as possible, and 60,000 or higher is preferable. […] The maximum absorption wavelength and the molar absorption coefficient are determined by using a spectrophotometer UV-2400PC (manufactured by Shimadzu Corporation). […]

Molecule	maximum absorption wavelength (λmax)
CC1CC(C(C)(C)C)C(OC(=O)c2c(-c3ccccc3)c3[n](c2NC(=O)c2cc(F)ccc2NS(C)(=O)=O)[Zn-]([OH])[N+]2=C(NC(=O)C(C)Sc4cc(C(=O)O)cc(C(=O)O)c4)C(C#N)=C(c4ccccc4)C2=C3)C(C(C)(C)C)C1 (centres unmarked)	566 nm
CC1=C(C(=O)OC2C(C(C)(C)C)CC(C)CC2C(C)(C)C)C(NC(=O)c2ccc(C(F)(F)F)cc2)=[N+]2C1=Cc1c(C)c(C(=O)OC3C(C(C)(C)C)CC(C)CC3C(C)(C)C)c(NC(=O)c3ccc(C(F)(F)F)cc3)[n]1[Zn-]2[OH] (centres unmarked)	554 nm
Cc1c(C(=O)OC2C(C(C)(C)C)CC(C)CC2C(C)(C)C)c(NC(=O)c2cccc(C(F)(F)F)c2)[n]2c1C=C1C(c3ccccc3)=C(C#N)C(NC(=O)C(C)Sc3cc(C(=O)O)cc(C(=O)O)c3)=[N+]1[Zn-]2[OH] (centres unmarked)	558 nm
Cc1c(C(=O)OC2C(C(C)(C)C)CC(C)CC2C(C)(C)C)c(NC(=O)c2cccc(C(F)(F)F)c2)[n]([Zn][OH])c1C=C1N=C(NC(=O)C(C)(C)C)C(C#N)=C1c1ccccc1 (centres unmarked)	560 nm
CC1CC(C(C)(C)C)C(OC(=O)c2c(-c3ccccc3)c(C=C3N=C(NC(=O)C(C)(C)C)C(C#N)=C3c3ccccc3)[n]([Zn][OH])c2NC(=O)c2c(F)c(F)c(C(=O)O)c(F)c2F)C(C(C)(C)C)C1 (centres unmarked)	557 nm

---

# Assay Name: Absorption spectrum in ethyl acetate solution (spectrophotometer UV-2400PC)
# Assay type: physicochemical

Molecule	molar absorption coefficient (ε)
Cc1c(C(=O)OC2C(C(C)(C)C)CC(C)CC2C(C)(C)C)c(NC(=O)c2ccccc2C(F)(F)F)[n]2c1C=C1C(c3ccccc3)=C(C#N)C(NC(=O)C(C)Sc3cc(C(=O)O)cc(C(=O)O)c3)=[N+]1[Zn-]2[OH] (stereo not shown)	81,400
Cc1c(C(=O)OC2C(C(C)(C)C)CC(C)CC2C(C)(C)C)c(NC(=O)c2cccc(C(F)(F)F)c2)[n]([Zn][OH])c1C=C1N=C(NC(=O)C(C)(C)C)C(C#N)=C1c1ccccc1 (stereo not shown)	87,600
CC1CC(C(C)(C)C)C(OC(=O)c2c(-c3ccccc3)c(C=C3N=C(NC(=O)CCCSc4cc(C(=O)O)cc(C(=O)O)c4)C(C#N)=C3c3ccccc3)[n]([Zn][OH])c2NC(=O)c2cc(F)cc(F)c2F)C(C(C)(C)C)C1 (stereo not shown)	93,900
CC1CC(C(C)(C)C)C(OC(=O)C2=C(c3ccccc3)C3=Cc4c(-c5ccccc5)c(C(=O)OC5C(C(C)(C)C)CC(C)CC5C(C)(C)C)c(NC(=O)c5ccc(C(F)(F)F)cc5)[n]4[Zn-]([OH])[N+]3=C2NC(=O)c2ccc(C(F)(F)F)cc2)C(C(C)(C)C)C1 (stereo not shown)	97,100
CC1CC(C(C)(C)C)C(OC(=O)c2c(-c3ccccc3)c3[n](c2NC(=O)c2cccc(F)c2C(=O)O)[Zn-]([OH])[N+]2=C(NC(=O)C(C)Sc4cc(C(=O)O)cc(C(=O)O)c4)C(C#N)=C(c4ccccc4)C2=C3)C(C(C)(C)C)C1 (stereo not shown)	66,100
CC1CC(C(C)(C)C)C(OC(=O)C2=C(c3ccccc3)C3=Cc4c(-c5ccccc5)c(C(=O)OC5C(C(C)(C)C)CC(C)CC5C(C)(C)C)c(NC(=O)c5c(F)c(F)c(C(=O)O)c(F)c5F)[n]4[Zn-]([OH])[N+]3=C2NC(=O)c2c(F)c(F)c(C(=O)O)c(F)c2F)C(C(C)(C)C)C1 (stereo not shown)	105,900
Cc1c(C(=O)OC2C(C(C)(C)C)CC(C)CC2C(C)(C)C)c(NC(=O)c2cccc(C(F)(F)F)c2)[n]2c1C=C1C(c3ccccc3)=C(C#N)C(NC(=O)C(C)Sc3cc(C(=O)O)cc(C(=O)O)c3)=[N+]1[Zn-]2[OH] (stereo not shown)	91,000
CC1=C(C(=O)OC2C(C(C)(C)C)CC(C)CC2C(C)(C)C)C(NC(=O)c2ccc(C(F)(F)F)cc2)=[N+]2C1=Cc1c(C)c(C(=O)OC3C(C(C)(C)C)CC(C)CC3C(C)(C)C)c(NC(=O)c3ccc(C(F)(F)F)cc3)[n]1[Zn-]2[OH] (stereo not shown)	111,800
CC1=C(C(=O)OC2C(C(C)(C)C)CC(C)CC2C(C)(C)C)C(NC(=O)c2cc(C(F)(F)F)cc(C(F)(F)F)c2)=[N+]2C1=Cc1c(C)c(C(=O)OC3C(C(C)(C)C)CC(C)CC3C(C)(C)C)c(NC(=O)c3cc(C(F)(F)F)cc(C(F)(F)F)c3)[n]1[Zn-]2[OH] (stereo not shown)	100,100
CC1CC(C(C)(C)C)C(OC(=O)c2c(-c3ccccc3)c3[n](c2NC(=O)c2cc(C(F)(F)F)cc(C(F)(F)F)c2)[Zn-]([OH])[N+]2=C(NC(=O)C(C)Sc4cc(C(=O)O)cc(C(=O)O)c4)C(C#N)=C(c4ccccc4)C2=C3)C(C(C)(C)C)C1 (stereo not shown)	76,500
Cc1c(C(=O)OC2C(C(C)(C)C)CC(C)CC2C(C)(C)C)c(NC(=O)c2ccc(F)c(F)c2)[n]2c1C=C1C(c3ccccc3)=C(C#N)C(NC(=O)C(C)Sc3cc(C(=O)O)cc(C(=O)O)c3)=[N+]1[Zn-]2[OH] (stereo not shown)	90,100
CC1CC(C(C)(C)C)C(OC(=O)C2=C(c3ccccc3)C3=Cc4c(-c5ccccc5)c(C(=O)OC5C(C(C)(C)C)CC(C)CC5C(C)(C)C)c(NC(=O)c5c(F)c(F)c(F)c(F)c5F)[n]4[Zn-]([OH])[N+]3=C2NC(=O)c2c(F)c(F)c(F)c(F)c2F)C(C(C)(C)C)C1 (stereo not shown)	107,300
Cc1c(C(=O)OC2C(C(C)(C)C)CC(C)CC2C(C)(C)C)c(NC(=O)c2cc(F)cc(F)c2)[n]2c1C=C1C(c3ccccc3)=C(C#N)C(NC(=O)C(C)Sc3cc(C(=O)O)cc(C(=O)O)c3)=[N+]1[Zn-]2[OH] (stereo not shown)	79,400
